assayed.target: GluA3 (Y454A/R461G) (Mus musculus, UniProt Q9Z2W9, R461G/Y454A)
Construct: expressed in transfected cells; host or cells: HEK293T
Sequence (Q9Z2W9 23-888 Y454A/R461G): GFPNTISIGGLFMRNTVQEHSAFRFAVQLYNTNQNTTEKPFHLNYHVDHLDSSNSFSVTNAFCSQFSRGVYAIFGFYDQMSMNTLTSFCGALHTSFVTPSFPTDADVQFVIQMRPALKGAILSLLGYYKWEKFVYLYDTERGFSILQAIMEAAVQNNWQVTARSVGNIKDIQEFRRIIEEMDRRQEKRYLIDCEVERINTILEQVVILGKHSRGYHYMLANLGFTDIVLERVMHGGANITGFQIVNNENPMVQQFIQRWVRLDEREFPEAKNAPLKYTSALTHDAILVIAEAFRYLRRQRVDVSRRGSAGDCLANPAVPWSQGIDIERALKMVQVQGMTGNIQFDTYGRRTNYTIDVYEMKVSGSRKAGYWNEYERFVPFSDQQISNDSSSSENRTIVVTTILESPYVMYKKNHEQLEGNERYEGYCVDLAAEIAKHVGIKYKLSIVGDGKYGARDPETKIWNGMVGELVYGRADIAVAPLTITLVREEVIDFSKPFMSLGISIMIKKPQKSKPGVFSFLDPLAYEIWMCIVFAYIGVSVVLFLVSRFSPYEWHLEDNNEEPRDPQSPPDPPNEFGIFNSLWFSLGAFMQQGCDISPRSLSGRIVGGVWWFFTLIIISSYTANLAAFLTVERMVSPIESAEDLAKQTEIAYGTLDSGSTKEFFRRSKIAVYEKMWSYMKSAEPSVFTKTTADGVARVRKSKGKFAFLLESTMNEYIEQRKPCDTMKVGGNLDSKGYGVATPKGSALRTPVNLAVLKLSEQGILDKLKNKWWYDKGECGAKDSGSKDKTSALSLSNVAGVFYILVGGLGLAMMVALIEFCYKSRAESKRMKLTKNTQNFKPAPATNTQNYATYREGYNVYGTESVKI
test.protocol: Concentration-dependent binding of PFQX1(AF488), confocal live imaging of HEK293T cells expressing GluA3
measurement.parameters: n = 3, read-out: Kd / Affinity of PFQX1(AF488) to GluA3
quantity: Kd

- N=c1ccc2c(-c3ccc(C(=O)NCc4ccn(-c5cc6c(cc5C(F)(F)F)[nH]c(=O)c(=O)n6CC(=O)O)c4)cc3C(=O)O)c3ccc(N)c(S(=O)(=O)O)c3oc-2c1S(=O)(=O)O: 0.0306 µM
